Items are presented alongside their recorded phosphorylation enrichment.
System: c-Abl (mouse);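 further: 11-residue human phosphosite peptides and single-mutation variants displayed on the E. coli surface, counted by deep sequencing, each peptide's frequency after selection divided by its frequency in the unselected input library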;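 further: frequency after pTyr selection over input frequency; kinase dosed for 20-30% of maximal phosphorylation in three min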
Test: phosphorylation enrichment, bacterial display (enrichment ratio); higher = better substrate or ligand; peptides without Tyr show the background
API note: the answer field is a bare number with no unit suffix.

Query (sequence): EEGEEYGGGGG [TUBA1A_Y451] ; field requested: phosphorylation enrichment
0.815

Others:
Query (sequence): RSRRSYSCQVM [IGLL1_Y192] ; field requested: phosphorylation enrichment
0.797

How about this sequence: FQNSLYAPDFS [FAM92A_Y226_R222Q_YF]
0.781

###

Tgt: c-Src SH2
Test: SH2 binding enrichment of the phosphorylated peptide, bacterial display (enrichment ratio); higher = better substrate or ligand; peptides without Tyr show the background
Measurement type: SH2 binding enrichment

Here are 2 sequences together with their reported answers.
Query (sequence): IKNSGYISRFL [EIF2AK3_Y585_YF] ; field requested: SH2 binding enrichment
0.793

How about this sequence: `ENAGYYFQVSA`
0.691

Others:
Query (sequence): RTTKTYFPHFD [HBA1_Y43_P38R] ; field requested: SH2 binding enrichment
1.23

How about this sequence: VQVAFYTVMMN [SPATA17_Y84_M86V_YF]
0.632

How about this sequence: ARIVDYNIIGW [MYH7_Y588_G584R]
0.874

How about this sequence: FGSVDCWEKFF [EEF1AKNMT_Y16_Y16C]
0.83

Sourced from the supplement of paper PMC10065799
